- Target system: CXCR4 on cultured U937 and Jurkat cells (human, UniProt P61073 1-352)
- Sequence (P61073 whole entry): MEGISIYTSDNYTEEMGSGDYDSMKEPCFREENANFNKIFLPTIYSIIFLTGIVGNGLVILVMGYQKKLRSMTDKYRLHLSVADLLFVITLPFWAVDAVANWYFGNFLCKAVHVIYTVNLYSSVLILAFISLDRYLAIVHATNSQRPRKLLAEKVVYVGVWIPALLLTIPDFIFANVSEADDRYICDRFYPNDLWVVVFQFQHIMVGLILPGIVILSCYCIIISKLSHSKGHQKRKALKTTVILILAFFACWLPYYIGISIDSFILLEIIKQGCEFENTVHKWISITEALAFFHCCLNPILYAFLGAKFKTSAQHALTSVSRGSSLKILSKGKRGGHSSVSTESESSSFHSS
- Experiment summary: cell-based or functional assay
Square brackets hold non-standard residues; d marks the D form. Ends that are not written are not given here.
Returns one of rule met or rule not met; rule met when Percent Inhibition of CXCL12 Mediated Migration (1.1 µM Test Article; Jurkat cells) is >= 70%.

I'd appreciate it if you could say whether LDRYHHSVRSSLRPYTK [SEQ ID NO: 7] has Percent Inhibition of CXCL12 Mediated Migration (1.1 µM Test Article; Jurkat cells) at least equal to 70%.
rule not met

I'd appreciate it if you could say whether LERYHHTVRSSLRPYTK [SEQ ID NO: 39] has Percent Inhibition of CXCL12 Mediated Migration (1.1 µM Test Article; Jurkat cells) at least equal to 70%.
rule met

Continuing:
I'd appreciate it if you could say whether LERYHHSVRSSLRPYT [SEQ ID NO: 18] has Percent Inhibition of CXCL12 Mediated Migration (1.1 µM Test Article; Jurkat cells) at least equal to 70%.
rule not met

I'd appreciate it if you could say whether LERYHHSVRSSLRPFTK [SEQ ID NO: 60] has Percent Inhibition of CXCL12 Mediated Migration (1.1 µM Test Article; Jurkat cells) at least equal to 70%.
rule not met

I'd appreciate it if you could say whether LRRYHHSVRSSLRPYTK [SEQ ID NO: 3] has Percent Inhibition of CXCL12 Mediated Migration (1.1 µM Test Article; Jurkat cells) at least equal to 70%.
rule not met

I'd appreciate it if you could say whether LERYHHS[dA]RSSLRPYT [SEQ ID NO: 5] has Percent Inhibition of CXCL12 Mediated Migration (1.1 µM Test Article; Jurkat cells) at least equal to 70%.
rule not met

I'd appreciate it if you could say whether LDRYHHS[dA]RSSLRPYTK [SEQ ID NO: 8] has Percent Inhibition of CXCL12 Mediated Migration (1.1 µM Test Article; Jurkat cells) at least equal to 70%.
rule met
